Recorded values, source the supplement of paper PMC10567573.

B1: DLC1 (parent)
chain: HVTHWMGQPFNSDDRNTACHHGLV

# Variants of: B1
# METHOD_SUMMARY: protein stability index of a GFP-peptide fusion (GPS, HEK-293T) (PSI 1-6); higher = more stable;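 also: lentivirally expressed fusions sorted by FACS into six bins by GFP to DsRed ratio, PSI derived from sequencing read proportions per bin multiplied by bin number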
# CONDITION: c terminus: a fixed tail appended
Assign protein stability index to each entry below.
One number for each entry.

// for each variant in input: emit protein stability index
1. D14V
2. W5P
3. G22I
4. G22Y

Given back:
[1.71, 3.3, 1.34, 1.6]
